- Assay summary: recombinant UMI read abundance after kanamycin selection (control-corrected) (log10(CPM+1)); higher = more efficient recombination; extreme values may be limits of the assay; sequences stand for … in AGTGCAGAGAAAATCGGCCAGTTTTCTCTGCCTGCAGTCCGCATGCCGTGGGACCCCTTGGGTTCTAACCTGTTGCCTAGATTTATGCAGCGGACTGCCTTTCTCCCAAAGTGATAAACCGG…AGGTTGGTTTCACT; site = the 11-nt donor;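 note: IS621 bridge recombinase in Escherichia coli cells against a fixed T5 target plasmid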
Recorded recombinant UMI read abundance (log10) by entry
Assay endpoint: recombinant UMI read abundance (log10)

INSERT INTO assay_data (entry_sequence, measured_number) VALUES
  ('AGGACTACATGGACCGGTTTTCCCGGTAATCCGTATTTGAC (site AGGACTACTAT)', 0.00291),
  ('TTTAGCTCATGGACCGGTTTTCCCGGTAATCCGTATTTGTT (site TTTAGCTCTAA)', 0.0116),
  ('GGAACCCCATGGACCGGTTTTCCCGGTAATCCGTATTTGTC (site GGAACCCCTGA)', 0.334),
  ('AGGAGGCCATGGACCGGTTTTCCCGGTAATCCGTATTTGCA (site AGGAGGCCTTG)', 0.211),
  ('AGCCACCCATGGACCGGTTTTCCCGGTAATCCGTATTTGTT (site GGCCACCCTAA)', 0),
  ('CCAGGGGCATGGACCGGTTTTCCCGGTAATCCGTATTTGAT (site CCAGGGGCTAT)', 1.04),
  ('CAGTCGACATGGACCGGTTTTCCCGGTAATCCGTATTTGGT (site CAGTCGACTGC)', 1.41),
  ('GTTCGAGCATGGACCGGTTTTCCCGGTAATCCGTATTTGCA (site GTTCGAGCTAG)', 0),
  ('GTCGGTACATGGACCGGTTTTCCCGGTAATCCGTATTTGAC (site GTAGGTACTGT)', 0.298);
